test: folding stability dG unfold from trypsin proteolysis; higher = more stable
Returns one of yes or no; yes when folding stability dG unfold is >= 1 kcal/mol.

chain sequence	group label
SAGGSAGGSMTITVTKVDFPPGLYEGLTIEELRKLLGDENLPIKETPVTVTVTPEKLAALLLSSAGGSAGGS [r12_178_JUSTAS]	yes
SAGGSKVEIWIRFGDYWIRITVEPKPNGRKKVSVEVYNPNGEPMWSITFEIDPDGKIKDIDITPMPSAGGSA [r2_260_TrROS]	yes
DDNQEYEYENPGGMKMRVEYNPSTGNMKVEMEPVPPVPPIPPIMIPLDLTPEQANRLINELQDLGIPIMVGS [r1_242_TrROS]	no
SAGGSAGGSAFVWNPDTGTFIQLDPNDGTIEVFEIENDNDGKLEPIGTVEVDPDDPDKGTITSAGGSAGGSA [r18_448_TrROS]	yes
SAGGSALPPHAVRVLVVTATDTDPGAAAARIAEEFRRKYPNTRVLTRPFDVPPGRPAVVAVVYVDESAGGSA [r15_916_TrMRF]	yes
SAGGSAIENQFLRITMYHGNKPHTWTFPIKKVDIDPEDGNIEVYFPPEFRELFGGPMRITDIEFPPSAGGSA [r15_710_TrROS]	yes
SAGGSSIKVTITDKNGNEYEIEIPSSLSLEEAKEKVKEYLEKKGYKVESITVENLPPGEAEIKVLKSAGGSA [r2_148_JUSTAS]	no

Origin of measurements: the supplement of paper PMC12764529
